- tgt: 5-hydroxytryptamine receptor 2C (Rattus norvegicus, UniProt P08909)
- Sequence (P08909 whole entry): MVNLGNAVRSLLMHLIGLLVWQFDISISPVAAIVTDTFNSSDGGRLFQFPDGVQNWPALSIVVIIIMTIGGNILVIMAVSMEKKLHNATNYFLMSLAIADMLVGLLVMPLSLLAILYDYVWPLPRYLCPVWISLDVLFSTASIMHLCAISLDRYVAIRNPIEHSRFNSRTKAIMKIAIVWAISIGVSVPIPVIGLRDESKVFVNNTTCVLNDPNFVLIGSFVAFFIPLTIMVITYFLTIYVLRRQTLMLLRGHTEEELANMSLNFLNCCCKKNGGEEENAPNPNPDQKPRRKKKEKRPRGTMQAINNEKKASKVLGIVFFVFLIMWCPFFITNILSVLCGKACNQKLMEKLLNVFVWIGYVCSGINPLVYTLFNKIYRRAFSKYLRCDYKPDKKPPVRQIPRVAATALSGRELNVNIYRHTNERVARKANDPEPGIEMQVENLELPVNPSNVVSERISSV
- runDescription: Displacement of [3H]mesulergine from 5HT2C in Sprague-Dawley rat brain cortex by liquid scintillation counting
- condition: read-out: Ki
experimentalEndpoint: Ki (nM)

Would you please look over these solved cases?
• CCOC(=O)c1cc2cc(OCCCN3CCN(C(=O)c4ccco4)CC3)ccc2[nH]1 = 309
• CCOC(=O)c1cc2cc(OCCCN3CCN(c4ccc(Cl)cc4)CC3)ccc2[nH]1 = 45.1
• CCOC(=O)c1cc2cc(OCCCN3CCN(c4ccccn4)CC3)ccc2[nH]1 = 104
• CCOC(=O)c1cc2cc(OCCCN3CCN(Cc4ccc5c(c4)OCO5)CC3)ccc2[nH]1 = 43.6

1. CCOC(=O)c1cc2cc(OCCCN3CCN(c4ccc(OC)cc4)CC3)ccc2[nH]1
2. CCOC(=O)c1cc2cc(OCCCN3CCN(c4cccc(Cl)c4)CC3)ccc2[nH]1
In: Which value of Ki is smaller, the one for 1 or the one for 2 ? Label of pick, please.
Out: 2
(2: 1.28 nM, 1: 50.4 nM)

I. CCOC(=O)c1cc2cc(OCCCN3CCN(c4ccc([N+](=O)[O-])cc4)CC3)ccc2[nH]1
II. CCOC(=O)c1cc2cc(OCCCN3CCN(c4ccc(Cl)c(Cl)c4)CC3)ccc2[nH]1
In: Which value of Ki is smaller, the one for I or the one for II ? Label of pick, please.
Out: I
(I: 247 nM, II: 10000 nM)
